system: NCI-H292 lung cancer cells; assay: FDA drug screening, complete media vs cholesterol-free media without statin (TABLE 1); format: cell-based, human; details: complete vs cholesterol-free media; greater than 0 enhanced anti-cancer activity, about 0 neutral, below 0 antagonists
Structures can show the parent of a compound that is named as a salt.
Decide using Difference: a value greater than or equal to -0.4 is 1 (yes), a smaller one is 0 (no).

- COMPOUND: "Cc1cccc(C(C)c2cnc[nH]2)c1C (centres unmarked) [Medetomidine (hydrochloride)]"
  ASSIGNED CATEGORY: "1 (yes)"
- COMPOUND: "Nc1nc(Cl)nc2c1ncn2[C@@H]1O[C@H](CO)[C@@H](O)[C@@H]1F"
  ASSIGNED CATEGORY: "1 (yes)"
- COMPOUND: "O=C[C@H](O)[C@@H](O)[C@H](O)CO"
  ASSIGNED CATEGORY: "1 (yes)"
- COMPOUND: "CCC(CC)[C@H](NC(C)=O)[C@@H]1[C@H](O)[C@@H](C(=O)O)C[C@H]1NC(=N)N.O.O.O [Peramivir (trihydrate)]"
  ASSIGNED CATEGORY: "0 (no)"
- COMPOUND: "CC(C)n1nccc1-c1ncccc1COc1cccc(O)c1C=O"
  ASSIGNED CATEGORY: "0 (no)"
- COMPOUND: "CC1=C(C(=O)O)N2C(=O)[C@@H](NC(=O)[C@H](N)c3ccccc3)[C@H]2SC1 [Cephalexin (monohydrate)]"
  ASSIGNED CATEGORY: "0 (no)"

Say whether `O=C(O)/C=C/C(=O)O` shows Difference of -0.4 or more.
1 (yes)

Is it the case that N#Cc1ccc2[nH]cc(CCCCN3CCN(c4ccc5oc(C(N)=O)cc5c4)CC3)c2c1 [Vilazodone (Hydrochloride)] has Difference reaching or exceeding -0.4?
1 (yes)

Determine whether measured Difference meets or exceeds -0.4 for CC(C)c1cc2c(cc1S(=O)(=O)O)[C@@]1(C)CCC[C@@](C)(C(=O)O)[C@@H]1CC2 [Ecabet (sodium)]
1 (yes)

Can `O=C(O)[C@@H](S)[C@@H](S)C(=O)O` be said to have Difference at or above -0.4?
0 (no)

Given C#CC1(O)CC[C@H]2[C@@H]3CCC4=CC(=O)CC[C@@H]4[C@H]3CC[C@@]21CC (some centres unmarked) , state whether its Difference is at least -0.4.
1 (yes)

Kindly determine if Difference recorded for CC1(C)S[C@@H]2[C@H](NC(=O)[C@H](N)c3ccccc3)C(=O)N2[C@H]1C(=O)[O-].[Na+] [Ampicillin (sodium)] is above or exactly -0.4.
0 (no)

Please indicate if the recorded Difference for C[C@H](C(=O)O)c1cccc(C(=O)c2ccccc2)c1 [S-(+)-Ketoprofen] meets or exceeds -0.4.
1 (yes)
